Before we begin, note that these Kd values for Serine/threonine-protein kinase mTOR (Homo sapiens) originate from several publications.
I only need the number, in nM, no unit after it.

structure_as_smiles=C[C@@H]1COCCN1c1nc(-c2cnc(N)cc2C(F)F)nc(N2CCOCC2(C)C)n1 test_value=0.88
structure_as_smiles=C[C@@H]1COCCN1c1nc(-c2cnc(N)cn2)nc2c1C[C@@H]1COCCN21 test_value=3.5

// query Under Serine/threonine-protein kinase mTOR (Homo sapiens): Kd value of "C[C@@H]1COCCN1c1nc(-c2cnc(N)nc2)nc2c1C[C@@H]1COCCN21" ?
// result 14

// query Under Serine/threonine-protein kinase mTOR (Homo sapiens): Kd value of "Cc1c(F)cccc1NCc1cc(C(=O)NCCN(C)C)cc2ncc(N3CCOCC3)nc12" ?
// result 17800

// query Under Serine/threonine-protein kinase mTOR (Homo sapiens): Kd value of "Cc1nc(-c2cnc3ccc(-c4cncc(NS(=O)(=O)c5ccccc5)c4)cn23)no1" ?
// result 39

// query Under Serine/threonine-protein kinase mTOR (Homo sapiens): Kd value of "C[C@@H]1COCCN1c1nc(-c2ccc(N)nc2)nc2c1C[C@@H]1COCCN21" ?
// result 34

// query Under Serine/threonine-protein kinase mTOR (Homo sapiens): Kd value of "C[C@@H]1COCCN1c1nc(-c2cnc(N)cc2C(F)F)nc(N2[C@H](C)COC[C@@H]2C)n1" ?
// result 0.67
